// data source = ChEMBL document CHEMBL5537115

# Test system: Staphylococcus aureus
# ASSAY_SUMMARY: Antibacterial activity against methicillin-resistant Staphylococcus aureus ATCC43300 assessed as bacterial growth inhibition incubated for 20 hrs by CLSI based broth microdilution method
# Format: functional
OUTCOME_MEASURE: MIC (µg/mL)
Numbers only, in µg/mL.

C[n+]1cc(-c2ccccc2)cc(/C=C/c2ccc(Cl)cc2)c1-c1ccccc1.[I-] :: 4

Take each entry in turn and give its MIC.
1. CCOc1ccc(/C=C/c2cc(-c3ccccc3)c[n+](C)c2-c2ccccc2)cc1.[I-]
2. CCCCOc1ccc(/C=C/c2cc(-c3ccccc3)c[n+](C)c2-c2ccccc2)cc1.[I-]
3. CCCCCCOc1ccc(/C=C/c2cc(-c3ccccc3)c[n+](C)c2-c2ccccc2)cc1.[I-]
4. Cc1ccccc1-c1c[n+](C)c(-c2ccc(C(C)(C)C)cc2)cc1/C=C/c1ccc(C(C)(C)C)cc1.[I-]
5. C[n+]1cc(-c2ccccc2)c(/C=C/c2ccc(O)cc2)cc1-c1ccc(C(C)(C)C)cc1.[I-]

Key:
1. 8
2. 1
3. 1
4. 0.25
5. 1

Take each entry in turn and give its MIC.
1. C[n+]1cc(-c2ccccc2)c(/C=C/c2ccc(N)cc2)cc1-c1ccc(C(C)(C)C)cc1.[I-]
2. C[n+]1cc(-c2ccccc2)c(/C=C/c2ccc(N3CCCC3)cc2)cc1-c1ccc2ccccc2c1.[I-]
3. COc1cc(/C=C/c2cc(-c3ccccc3)c[n+](C)c2-c2ccccc2)cc(OC)c1OC.[I-]
4. CCCCCOc1ccc(/C=C/c2cc(-c3ccccc3)c[n+](C)c2-c2ccccc2)cc1.[I-]

Key:
1: 0.5; 2: 0.5; 3: 64; 4: 1

Take each entry in turn and give its MIC.
1. CCCCCOc1ccc(/C=C/c2cc(-c3ccccc3)[n+](C)cc2-c2ccccc2)cc1.[I-]
2. C[n+]1cc(-c2ccccc2)c(/C=C/c2ccc(C(C)(C)C)cc2)cc1-c1ccc2ccccc2c1.[I-]
3. C[n+]1cc(-c2ccccc2)cc(/C=C/c2ccccc2[N+](=O)[O-])c1-c1ccccc1.I
4. Cc1ccc(/C=C/c2cc(-c3ccc(C(C)(C)C)cc3)[n+](C)cc2-c2ccccc2C)cc1.[I-]
5. CC(C)c1ccc(/C=C/c2cc(-c3ccccc3)c[n+](C)c2-c2ccccc2)cc1.[I-]
6. CN(C)[C@@H]1C(O)=C(C(N)=O)C(=O)[C@@]2(O)C(O)=C3C(=O)c4c(O)cccc4[C@@](C)(O)[C@H]3C[C@@H]12 [TETRACYCLINE]
7. C[n+]1cc(-c2ccccc2)cc(/C=C/c2ccc(C(C)(C)C)cc2)c1-c1ccccc1.[I-]

Key:
1
1
32
0.5
2
0.5
1

Take each entry in turn and give its MIC.
1. CN(C)c1ccc(/C=C/c2cc(-c3ccccc3)[n+](C)cc2-c2ccccc2)cc1.[I-]
2. C[n+]1cc(-c2ccccc2)cc(/C=C/c2cccc(Br)c2)c1-c1ccccc1.[I-]
3. C[n+]1cc2c3c(ccc2c2ccc4cc5c(cc4c21)OCO5)OCO3
4. Cc1ccccc1-c1c[n+](C)c(-c2ccc(C(C)(C)C)cc2)cc1/C=C/c1ccc(N(C)C)cc1.[I-]

Key:
2
4
8
0.5

###

# Tested on: Klebsiella pneumoniae
# ASSAY_SUMMARY: Antibacterial activity against Klebsiella pneumoniae ATCC BAA-1902 assessed as bacterial growth inhibition incubated for 20 hrs by CLSI based broth microdilution method
# Type: functional
Record form. Attribute: MIC. Fill in for each entry.

Worked set:
CCCCCCOc1ccc(/C=C/c2cc(-c3ccccc3)c[n+](C)c2-c2ccccc2)cc1.[I-] :: > 64 µg/mL
C[n+]1cc(-c2ccccc2)cc(/C=C/c2ccc(F)cc2)c1-c1ccccc1.[I-] :: > 64 µg/mL

Exercise: Name the reported MIC value associated with the compound COc1ccc(/C=C/c2cc(-c3ccccc3)c[n+](C)c2-c2ccccc2)cc1.[I-]
Key: > 64 µg/mL

###

# System: Staphylococcus aureus
# ASSAY_SUMMARY: Selectivity ratio of MBC for erythromycin-susceptible Staphylococcus aureus ATCC25923 to MIC for erythromycin-susceptible Staphylococcus aureus ATCC25923
# Type: functional
OUTCOME_MEASURE: Ratio

C[n+]1cc(-c2ccccc2)c(/C=C/c2ccc(C(C)(C)C)cc2)cc1-c1ccc(C(C)(C)C)cc1.[I-] :: 4
Cc1ccccc1-c1c[n+](C)c(-c2ccc(C(C)(C)C)cc2)cc1/C=C/c1ccc(C(C)(C)C)cc1.[I-] :: 4
C[n+]1cc2c3c(ccc2c2ccc4cc5c(cc4c21)OCO5)OCO3 :: >32

--- query ---
Exercise: Value wanted: Ratio (Staphylococcus aureus) of entry CN(C)c1ccc(/C=C/c2cc(-c3ccc(C(C)(C)C)cc3)[n+](C)cc2-c2ccccc2)cc1.[I-]
Key: 8

###

# Tested on: Escherichia coli
# ASSAY_SUMMARY: Antibacterial activity against penicillin-susceptible Escherichia coli ATCC25922 assessed as bacterial growth inhibition incubated for 20 hrs by CLSI based broth microdilution method
# Assay type: functional
Record form. Attribute: MIC. Fill in for each entry.

Worked set:
NC(=O)c1c(F)ccc(OCc2nc3cc(Cl)cnc3s2)c1F :: > 64 µg/mL
COc1ccc(/C=C/c2cc(-c3ccccc3)c[n+](C)c2-c2ccccc2)cc1.[I-] :: > 64 µg/mL
C=CC1=C(C(=O)O)N2C(=O)[C@@H](NC(=O)/C(=N\OCC(=O)O)c3csc(N)n3)[C@H]2SC1 :: < 0.062 µg/mL

Take each entry in turn and give its MIC.
1. C[n+]1cc(-c2ccccc2)cc(/C=C/c2ccc(C(F)(F)F)cc2)c1-c1ccccc1.[I-]
2. CC(=O)NC[C@H]1CN(c2ccc(N3CCOCC3)c(F)c2)C(=O)O1

Key:
> 64 µg/mL
> 64 µg/mL

###

Record form. Attribute: MIC. Fill in for each entry.
# Test system: Enterococcus faecium
# ASSAY_SUMMARY: Antibacterial activity against vancomycin-resistant Enterococcus faecium ATCC51559 assessed as bacterial growth inhibition incubated for 20 hrs by CLSI based broth microdilution method
# Assay type: functional

Worked set:
C=CC1=C(C(=O)O)N2C(=O)[C@@H](NC(=O)/C(=N\OCC(=O)O)c3csc(N)n3)[C@H]2SC1 :: > 64 µg/mL
COc1ccc2cc3[n+](cc2c1OC)CCc1cc2c(cc1-3)OCO2 :: > 64 µg/mL

--- query ---
Exercise: Name the reported MIC value associated with the molecule CC1(C)S[C@@H]2[C@H](NC(=O)[C@H](NC(=O)N3CCN(S(C)(=O)=O)C3=O)c3ccccc3)C(=O)N2[C@H]1C(=O)O
Key: > 64 µg/mL

###

# System: Streptococcus pyogenes
# ASSAY_SUMMARY: Antibacterial activity against erythromycin-resistant Streptococcus pyogenes 2 clinical isolate assessed as bacterial growth inhibition incubated for 20 hrs by CLSI based broth microdilution method
# Format: functional
Record form. Attribute: MIC. Fill in for each entry.
Give bare numbers, in µg/mL.

Worked set:
C[n+]1cc(-c2ccccc2)c(/C=C/c2ccc(C(C)(C)C)cc2)cc1-c1ccccc1.[I-] :: 2
CC(=O)NC[C@H]1CN(c2ccc(N3CCOCC3)c(F)c2)C(=O)O1 :: 1
C[n+]1cc(-c2ccccc2)cc(/C=C/c2ccc(C(F)(F)F)cc2)c1-c1ccccc1.[I-] :: 2
CCCCCCOc1ccc(/C=C/c2cc(-c3ccccc3)[n+](C)cc2-c2ccccc2)cc1.[I-] :: 2

Take each entry in turn and give its MIC.
1. C[n+]1cc(-c2ccccc2)c(/C=C/c2ccc(C(C)(C)C)cc2)cc1-c1ccc(C(C)(C)C)cc1.[I-]
2. C[n+]1cc(-c2ccccc2)cc(/C=C/c2ccc(Cl)cc2)c1-c1ccccc1.[I-]
3. C[n+]1cc(-c2ccccc2)c(/C=C/c2ccc(N3CCCCC3)cc2)cc1-c1ccc(C(C)(C)C)cc1.[I-]
4. CCCOc1ccc(/C=C/c2cc(-c3ccc(C(C)(C)C)cc3)[n+](C)cc2-c2ccccc2)cc1.[I-]
5. C[n+]1cc(-c2ccccc2)c(/C=C/c2ccc(N3CCCC3)cc2)cc1-c1ccc2ccccc2c1.[I-]

Key:
2
4
2
2
1

Take each entry in turn and give its MIC.
1. Cc1ccccc1-c1c[n+](C)c(-c2ccc(C(C)(C)C)cc2)cc1/C=C/c1ccc(C(C)(C)C)cc1.[I-]
2. C[n+]1cc(-c2ccccc2)cc(/C=C/c2ccc(C#N)cc2)c1-c1ccccc1.[I-]
3. CCCOc1ccc(/C=C/c2cc(-c3ccccc3)c[n+](C)c2-c2ccccc2)cc1.[I-]
4. CC(C)c1ccc(/C=C/c2cc(-c3ccc4ccccc4c3)[n+](C)cc2-c2ccccc2)cc1.[I-]

Key:
2
32
4
4

Take each entry in turn and give its MIC.
1. CCCCOc1ccc(/C=C/c2cc(-c3ccccc3)c[n+](C)c2-c2ccccc2)cc1.[I-]
2. C[n+]1cc(-c2ccccc2)c(/C=C/c2ccc(O)cc2)cc1-c1ccccc1.[I-]
3. CCOc1ccc(/C=C/c2cc(-c3ccccc3)c[n+](C)c2-c2ccccc2)cc1.[I-]

Key:
2
16
8

Take each entry in turn and give its MIC.
1. C[n+]1cc2c3c(ccc2c2ccc4cc5c(cc4c21)OCO5)OCO3
2. CCc1ccc(/C=C/c2cc(-c3ccccc3)c[n+](C)c2-c2ccccc2)cc1.[I-]

Key:
[2, 8]
